Ref: ChEMBL document CHEMBL1132673

Below, each of the compounds is paired with its reported rIC50 value.
method: In vitro immunosuppressive activity measured in the interleukin-2 receptor gene assay (IL-2 RGA) in mitogen-stimulated human T-cell line; relative to FK506

- cpdSmiles: "CC[C@@H]1/C=C(\\C)C[C@H](C)C[C@H](OC)[C@H]2O[C@@](O)(C(=O)C(=O)N3CCCC[C@H]3C(=O)O[C@H](/C(C)=C/[C@@H]3CC[C@@H](OC(=S)N(C)C(=O)CCC(=O)OC)[C@H](OC)C3)[C@H](C)[C@@H](O)CC1=O)[C@H](C)C[C@@H]2OC"
  rIC50: 6.9
- cpdSmiles: "CC[C@@H]1/C=C(\\C)C[C@H](C)C[C@H](OC)[C@H]2O[C@@](O)(C(=O)C(=O)N3CCCC[C@H]3C(=O)O[C@H](/C(C)=C/[C@@H]3CC[C@@H](OC(=S)NC(=O)C[C@@H]4OC(C)(C)OC4=O)[C@H](OC)C3)[C@H](C)[C@@H](O)CC1=O)[C@H](C)C[C@@H]2OC"
  rIC50: 12
- cpdSmiles: "CC[C@@H]1/C=C(\\C)C[C@H](C)C[C@H](OC)[C@H]2O[C@@](O)(C(=O)C(=O)N3CCCC[C@H]3C(=O)O[C@H](/C(C)=C/[C@@H]3CC[C@@H](OC(=O)NC(=O)c4ccccc4)[C@H](OC)C3)[C@H](C)[C@@H](O)CC1=O)[C@H](C)C[C@@H]2OC"
  rIC50: 1.2
